Provenance of the data: the supplement of paper PMC10567573

B1: PTPN9 (parent)
chain: NKWTVQYNVSPLSWNVAVKFLMAR

# Variants of: B1
# Test Description: protein stability index of a GFP-peptide fusion (GPS, HEK-293T) (PSI 1-6); higher = more stable;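 further: lentivirally expressed fusions sorted by FACS into six bins by GFP to DsRed ratio, PSI derived from sequencing read proportions per bin multiplied by bin number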
# Conditions: c terminus: a fixed tail appended
I would appreciate it if you labelled entries Criterion met when protein stability index is 3 or higher, otherwise Criterion not met.

L21K ... Criterion not met
Q6F ... Criterion not met
Y7F ... Criterion met
P11S ... Criterion met
L12A ... Criterion met
K2E ... Criterion met
L12Q ... Criterion not met
S10A ... Criterion not met
T4Y ... Criterion met
K2I ... Criterion met

## Input Record `K2Q` ; criterion: protein stability index no lower than 3. Met?
## Output Criterion not met

## Input Please indicate if the recorded protein stability index for `P11W` meets or exceeds 3.
## Output Criterion met

## Input State whether the measured protein stability index reaches 3, counting equality as reaching it, for `S10D`
## Output Criterion not met

## Input In plain terms: is recorded protein stability index at least 3 for `M22F` ?
## Output Criterion met

## Input Item `L12C` with protein stability index of 3 or above?
## Output Criterion not met

## Input # check: protein stability index of `N15Y` is greater than or equal to 3
## Output Criterion not met

## Input Tell me whether protein stability index is at least 3 here: `M22G`
## Output Criterion not met

## Input Given `W14L` , state whether its protein stability index is at least 3.
## Output Criterion not met

## Input Quick check, protein stability index >= 3? `Q6N`
## Output Criterion not met

## Input Tell me whether protein stability index is at least 3 here: `N1W`
## Output Criterion met

## Input Textbook exercise: given the entry `V18Q` , state whether its protein stability index is greater than or equal to 3.
## Output Criterion not met

## Input # check: protein stability index of `W14V` is greater than or equal to 3
## Output Criterion not met
